Tested on: HCT-116
Experiment: Antiproliferative activity against human HCT-116 cells assessed as inhibition of cell proliferation measured after 72 hrs by MTT assay
Assay type: functional, cell-based
Conditions: HCT-116, 72 h
Reported Property: pIC50
Answers are plain numbers, as −log10 of the molar value.

Observe how each entry below is paired with its result.
Please fill in: pIC50 reported for N[C@@H]1CCN(C(=O)c2csc3c(O)c4c(c(O)c23)C(=O)c2ccccc2C4=O)C1 = 5.70

Please fill in: pIC50 reported for N[C@H]1CCN(C(=O)c2csc3c(O)c4c(c(O)c23)C(=O)c2ccccc2C4=O)C1 = 5.74

Please fill in: pIC50 reported for CCCn1c(C)c(C(=O)N2CC[C@H](N)C2)c2c(O)c3c(c(O)c21)C(=O)c1ccccc1C3=O = 5.66

Please fill in: pIC50 reported for Cc1[nH]c2c(O)c3c(c(O)c2c1C(=O)N[C@H]1CCNC1)C(=O)c1ccccc1C3=O = 5.74

Please fill in: pIC50 reported for O=C1c2ccccc2C(=O)c2c1c(O)c1scc(C(=O)NC3CCCNC3)c1c2O (racemic) = 5.49

Please fill in: pIC50 reported for NC1CCN(C(=O)c2csc3c(O)c4c(c(O)c23)C(=O)c2ccccc2C4=O)CC1 = 5.72

For every record below, what is its pIC50?
1. Cc1[nH]c2c(O)c3c(c(O)c2c1C(=O)NC1CCNCC1)C(=O)c1ccccc1C3=O
2. O=C1c2ccccc2C(=O)c2c1c(O)c1scc(C(=O)N[C@@H]3CCNC3)c1c2O
3. Cc1[nH]c2c(O)c3c(c(O)c2c1C(=O)N1CCC(N)CC1)C(=O)c1ccccc1C3=O
4. O=C1c2ccccc2C(=O)c2c1c(O)c1scc(C(=O)N[C@H]3CCNC3)c1c2O
5. N[C@@H]1CN(C(=O)c2csc3c(O)c4c(c(O)c23)C(=O)c2ccccc2C4=O)C[C@H]1N
6. O=C1c2ccccc2C(=O)c2c1c(O)c1scc(C(=O)NC3CCNCC3)c1c2O
7. NC1CCCN(C(=O)c2csc3c(O)c4c(c(O)c23)C(=O)c2ccccc2C4=O)C1 (racemic)
8. Cc1[nH]c2c(O)c3c(c(O)c2c1C(=O)N1CC[C@@H](N)C1)C(=O)c1ccccc1C3=O

Resp:
1. 5.82
2. 6.10
3. 5.85
4. 6.05
5. 5.40
6. 5.77
7. 6.10
8. 5.82

For every record below, what is its pIC50?
1. Cc1[nH]c2c(O)c3c(c(O)c2c1C(=O)N1CCCC(N)C1)C(=O)c1ccccc1C3=O (stereo not given)
2. Cc1[nH]c2c(O)c3c(c(O)c2c1C(=O)NC1CCCNC1)C(=O)c1ccccc1C3=O (stereo not given)
3. Cc1c(C(=O)N2CC[C@H](N)C2)c2c(O)c3c(c(O)c2n1CC(=O)O)C(=O)c1ccccc1C3=O
4. CC(=O)Cn1c(C)c(C(=O)N2CC[C@H](N)C2)c2c(O)c3c(c(O)c21)C(=O)c1ccccc1C3=O
5. Cc1[nH]c2c(O)c3c(c(O)c2c1C(=O)N[C@@H]1CCNC1)C(=O)c1ccccc1C3=O
6. CCn1c(C)c(C(=O)N2CC[C@H](N)C2)c2c(O)c3c(c(O)c21)C(=O)c1ccccc1C3=O

Resp:
5.70
6.00
4.77
4.77
5.64
5.64

---

Tested on: NCI-H460
Assay: Antiproliferative activity against human NCI-H460 cells assessed as inhibition of cell proliferation measured after 72 hrs by MTT assay
Format: functional, cell-based
Details: NCI-H460, 72 h
Field: pIC50. Provide a value for each of the compounds that follow.
Give bare numbers, as −log10 of the molar value.

Observe how each entry below is paired with its result.
Please fill in: pIC50 reported for Cc1[nH]c2c(O)c3c(c(O)c2c1C(=O)N1CC[C@H](N)C1)C(=O)c1ccccc1C3=O = 6.05

Please fill in: pIC50 reported for N[C@@H]1CN(C(=O)c2csc3c(O)c4c(c(O)c23)C(=O)c2ccccc2C4=O)C[C@H]1N = 4.90

Please fill in: pIC50 reported for NC1CCN(C(=O)c2csc3c(O)c4c(c(O)c23)C(=O)c2ccccc2C4=O)CC1 = 5.77

Now consider a different compound.
Please fill in: pIC50 reported for Cc1[nH]c2c(O)c3c(c(O)c2c1C(=O)N1C[C@@H](N)[C@H](N)C1)C(=O)c1ccccc1C3=O = 4.94

---

Test system: K562
Assay: Antiproliferative activity against human K562 cells assessed as inhibition of cell proliferation measured after 72 hrs by MTT assay
Assay type: functional, cell-based
Settings: K562, 72 h
Field: pIC50. Provide a value for each of the molecules that follow.
Give bare numbers, as −log10 of the molar value.

Please fill in: pIC50 reported for Cc1c(C(=O)N2CC[C@H](N)C2)c2c(O)c3c(c(O)c2n1CC(=O)O)C(=O)c1ccccc1C3=O = 4.87

Please fill in: pIC50 reported for NC1CCCN(C(=O)c2csc3c(O)c4c(c(O)c23)C(=O)c2ccccc2C4=O)C1 (racemic) = 5.89

Please fill in: pIC50 reported for NC1CCN(C(=O)c2csc3c(O)c4c(c(O)c23)C(=O)c2ccccc2C4=O)CC1 = 5.70

For every record below, what is its pIC50?
1. Cc1[nH]c2c(O)c3c(c(O)c2c1C(=O)N1CCC(N)CC1)C(=O)c1ccccc1C3=O
2. N[C@H]1CCN(C(=O)c2csc3c(O)c4c(c(O)c23)C(=O)c2ccccc2C4=O)C1
3. O=C1c2ccccc2C(=O)c2c1c(O)c1scc(C(=O)NC3CCCNC3)c1c2O (racemic)
4. Cc1[nH]c2c(O)c3c(c(O)c2c1C(=O)N1CC[C@@H](N)C1)C(=O)c1ccccc1C3=O

Resp:
1: 5.64; 2: 5.80; 3: 5.17; 4: 6.52

---

System: HL-60
Experiment: Antiproliferative activity against human HL-60 cells assessed as inhibition of cell proliferation measured after 72 hrs by MTT assay
Assay type: functional, cell-based
Settings: HL-60, 72 h
Reported Property: pIC50
Give bare numbers, as −log10 of the molar value.

Please fill in: pIC50 reported for N[C@@H]1CCN(C(=O)c2csc3c(O)c4c(c(O)c23)C(=O)c2ccccc2C4=O)C1 = 5.39

Please fill in: pIC50 reported for Cc1[nH]c2c(O)c3c(c(O)c2c1C(=O)N[C@@H]1CCNC1)C(=O)c1ccccc1C3=O = 6.00

Please fill in: pIC50 reported for O=C1c2ccccc2C(=O)c2c1c(O)c1scc(C(=O)N[C@@H]3CCNC3)c1c2O = 5.34

Please fill in: pIC50 reported for Cc1[nH]c2c(O)c3c(c(O)c2c1C(=O)N[C@H]1CCNC1)C(=O)c1ccccc1C3=O = 6.00

For every record below, what is its pIC50?
1. N[C@H]1CCN(C(=O)c2csc3c(O)c4c(c(O)c23)C(=O)c2ccccc2C4=O)C1
2. NC1CCN(C(=O)c2csc3c(O)c4c(c(O)c23)C(=O)c2ccccc2C4=O)CC1
3. O=C1c2ccccc2C(=O)c2c1c(O)c1scc(C(=O)NC3CCCNC3)c1c2O (racemic)

Resp:
5.26
6.05
5.59

For every record below, what is its pIC50?
1. Cc1[nH]c2c(O)c3c(c(O)c2c1C(=O)N1CCC(N)CC1)C(=O)c1ccccc1C3=O
2. Cc1[nH]c2c(O)c3c(c(O)c2c1C(=O)N1CC[C@H](N)C1)C(=O)c1ccccc1C3=O
3. Cc1[nH]c2c(O)c3c(c(O)c2c1C(=O)N1C[C@@H](N)[C@H](N)C1)C(=O)c1ccccc1C3=O
4. CC(=O)Cn1c(C)c(C(=O)N2CC[C@H](N)C2)c2c(O)c3c(c(O)c21)C(=O)c1ccccc1C3=O
5. O=C1c2ccccc2C(=O)c2c1c(O)c1scc(C(=O)NC3CCNCC3)c1c2O
6. Cc1[nH]c2c(O)c3c(c(O)c2c1C(=O)N1CCCC(N)C1)C(=O)c1ccccc1C3=O (stereo not drawn)
7. Cc1[nH]c2c(O)c3c(c(O)c2c1C(=O)NC1CCNCC1)C(=O)c1ccccc1C3=O

Resp:
1: 6.10; 2: 6.05; 3: 5.51; 4: 5.47; 5: 5.80; 6: 6.70; 7: 6.70

For every record below, what is its pIC50?
1. NC1CCCN(C(=O)c2csc3c(O)c4c(c(O)c23)C(=O)c2ccccc2C4=O)C1 (racemic)
2. N[C@@H]1CN(C(=O)c2csc3c(O)c4c(c(O)c23)C(=O)c2ccccc2C4=O)C[C@H]1N
3. CCCn1c(C)c(C(=O)N2CC[C@H](N)C2)c2c(O)c3c(c(O)c21)C(=O)c1ccccc1C3=O
4. Cc1c(C(=O)N2CC[C@H](N)C2)c2c(O)c3c(c(O)c2n1CC(=O)O)C(=O)c1ccccc1C3=O

Resp:
5.52
5.33
5.89
4.88
